Hello, the source for this data is the supplement of paper PMC10567573, in case you need it.

Listed below: protein stability index values for each entry.
# assay-method-text: protein stability index of a GFP-peptide fusion (GPS, HEK-293T) (PSI 1-6); higher = more stable;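 also: 24-mer peptide tiles fused after GFP, lentivirally expressed, FACS-sorted into six equal bins by GFP/DsRed ratio, decoded by Illumina sequencing, PSI is the read-weighted mean bin number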
# particulars: treatment: DMSO; c terminus: a fixed tail appended
assay-endpoint: protein stability index

# entry-sequence, observed-value
measured = [
    ("LSSAPSSRAEPIRTTVFQYPVGWP [ZMAT5]", 2.86),
    ("QGIYEEYEDIRRENPVGTFHCSMS [PTPN9]", 3.84),
    ("SSSKWQRRDYLLLVMEGTDDGRLL [APMAP]", 2.88),
    ("EAMFCDFPKINHGILYDEEKYKPF [CFHR2]", 2.49),
    ("RQAELAIERCIFPERIYQGSSGSY [PI4K2A]", 2.72),
    ("IQSKLGIVSLLLGTIHALIFAWNK [STEAP1]", 2.35),
    ("VKSRGKRLALEKVPKVGQRFNRIG [PI4K2A]", 3.23),
    ("MAEPSAATQSHSISSSSFGAEPSA [RTN3]", 5.06),
    ("FVEYCDVNNDKSISVQELMGCLGV [SMOC2]", 2.39),
    ("KGDRGLPLEGSAKGKVQAELSQPL [RBBP5]", 4.82),
    ("FESFPAGSTLIFYKYCDHENAAFK [TOR1AIP2]", 2.17),
    ("LLDALSPEQLVLTLLEAEPPHVLI [ESR2]", 2.55),
    ("IGLRQHHCRKCGKAVCGKCSSKRS [WDFY2]", 4.08),
    ("ARRRVCHTEDFQKEEGTVNGASWH [CPXM2]", 4.57),
    ("LVSQSNDLSSLRAKYPHDVVNHLS [SPACA9]", 3.09),
    ("ERIQELEDLLAKEKDNSRRMLTDK [LMNB1]", 4.85),
    ("KCGDLECEALINRVSAMRDYRGPD [MIA2]", 3.25),
    ("QERQGPAKPEVLSIQWPGKRSSRR [NECAB1]", 4.88),
    ("SQIETLTSVFQKKLCTAHMCSTLE [MATN2]", 2.03),
    ("LPPVAVRSLQDLARIAIRGTIKKI [PCMTD2]", 3.2),
    ("MQNGAGASRTSTIFLNGNRERPLN [TNXB]", 3.7),
    ("TLDQTTSEEAPGGTELIQTPLASS [HDAC6]", 5.52),
    ("DIRYLLGYVSQQGGQRSTPLIIAA [FEM1B]", 2.5),
    ("NNQITCRNGQWSEPPKCLDPCVIS [CFHR2]", 3.34),
    ("KKTSITQQPSKHRTDEELQPPTTT [PLK2]", 5.27),
    ("VRERILGADNIDVSHPIIYRGAVY [FEM1B]", 2.13),
    ("FQASNPYLPTRGGTTMASGGRFRC [TRIM55]", 2.54),
]

###

# assay-method-text: protein stability index of a GFP-peptide fusion (GPS, HEK-293T) (PSI 1-6); higher = more stable
# particulars: treatment: DMSO; c terminus: a fixed tail appended
assay-endpoint: protein stability index

# entry-sequence, observed-value
data = [
    ("NGISPIIIDNTNLHAWEMKPYAVM [N4BP2L1]", 2.46),
    ("LIKTIETRNGEVVTESQKEQRSEL [PRPH]", 4.91),
    ("ADISQMLVCTADGDIHLSPEEPAA [TAF7L]", 4.93),
    ("LPYPKDVYSVSVDQKERCIIVRTT [DPCD]", 2.21),
    ("NSEVYLPNINKISMQAVLDYLYTK [RHOBTB1]", 2.17),
    ("NFFNQVLMLGKTSISDLSEHVFDL [PDS5B]", 2.56),
    ("LLKRMESLKLKSSHHSKHKAPSKL [DLC1]", 3.03),
    ("QSKTASDKSPSTVRDQGPSIPLTP [FBF1]", 5.07),
    ("LQVAGLSEEQLQEPITGWRKTVCH [LPCAT4]", 3.29),
    ("PSTASLLLCPGGLDHKLNLRGKAW [TIAF1]", 2.69),
    ("IACYVMKHYRFTHAEIIAWIRICR [CDC14A]", 2.37),
    ("IAQYALLGYFIRSWRTLAILVNLQ [SLC22A15]", 3.07),
    ("DFRVKYETELAMRQSVENDIHGLR [KRT18]", 3.56),
]

###

In this section we review reported protein stability index values for a set of sequences.
# assay-method-text: protein stability index of a GFP-peptide fusion (GPS, HEK-293T) (PSI 1-6); higher = more stable
# particulars: treatment: MLN4924 1 uM, 8 h; c terminus: a fixed tail appended
assay-endpoint: protein stability index

# entry-sequence, observed-value
measured = [
    ("PAEGEGRLGRCMRRLRDMVERPHS [KCNG1]", 4.11),
    ("LPPVAVRSLQDLARIAIRGTIKKI [PCMTD2]", 3.12),
    ("LNDAKRELRFLLVYLHGDDHQDSD [FAF2]", 2.23),
    ("EAYIAKQKRLKSKLLDHDNVKYLK [GDAP1]", 3.45),
    ("IRLMQRCWQGDPRVRPTFQEITSE [RIPK4]", 2.78),
    ("QQLKEFDGKSLVSVTKEGLELPED [HSP90AB1]", 5.3),
    ("REESLPNLLQYVRMPLLTPRYITD [KLHL12]", 2.63),
    ("ADIFRIYAPEAPYTSPDKLKDIFM [PDS5B]", 2.1),
    ("DQEGLQRITGLSPGRSALIVAVLC [SPNS1]", 2.27),
    ("RSLQLRIQELELQAQIHGLPVPPT [TFE3]", 2.89),
    ("QAYKWSNKLQYHAGLASGLLNQQS [MED27]", 2.42),
    ("CTVLRDARIRSHSWLESCIVGWRC [GMPPB]", 1.93),
    ("LGIHEDSTNRRRLSELLRYHTSQS [HSP90AB1]", 3.71),
    ("ASLNGYRLGERVLQVSFKTSKQHK [ELAVL3]", 3.52),
    ("CQRSRYRDSLTQPDEEPMHYGNIM [RSPH3]", 3.45),
    ("CRSKTLGYQHVDLQNFSSSWSDGM [SMTNL2]", 2.41),
    ("KLATCYFFTVEFGLCKQDGQLRVF [TPH1]", 2.97),
    ("IKQDINSLNKQIAQLQDFVRAKGS [STX5]", 3.38),
    ("EGPALVEIDRSVENTLLNSQMVST [MIA2]", 4.63),
    ("LNKKLKSYSLSRKKIVHYTCFDQR [CDC14A]", 2.35),
    ("NGISPIIIDNTNLHAWEMKPYAVM [N4BP2L1]", 2.01),
    ("ELDELQAAFEEFDTDRDGYISHRE [CABP4]", 5.32),
    ("LWENTRFTDCSFFVRGQEFKAHKS [SPOPL]", 2.98),
    ("SDKETDIDDRYGDLDSRTDSDIPE [CDS1]", 5.43),
    ("ISEEIQMSTKESDFLCLLGVSYTF [MIA2]", 2.76),
    ("GRGGRDRFTAESYTVLGDTLIDGG [FSD1]", 4.08),
    ("EYTCDVEKRSRGQVLFDKVCEHLN [EPB41L3]", 2.05),
    ("LSLQDQVDTLTFQSQSLRDRARRF [MTUS2]", 3.84),
    ("TGFIFQKVGKLAATAVGGGFFLLQ [FUNDC2]", 2.09),
    ("NQHDTEMKYYIVHLKRHFMFRNHL [DYRK1B]", 2.3),
    ("LSALLQFGVTYLEDYSAEYIIQQG [BCL2L13]", 2.43),
    ("KARDWFQGHLRRLRSRYSVASFKF [MYORG]", 2.15),
    ("VCEHLNLLEKDYFGLTYRDAENQK [EPB41L3]", 4.69),
    ("STLGGDIRESDPEQAPAPGEATAA [TBX6]", 5.53),
    ("DGNKIFLCHCGKAFSHKSMRDRHV [ZBTB22]", 2.61),
    ("RNRPKSTVNTHYFSIDEELVYENF [CDC14A]", 3.39),
    ("SYQEEAAMELKVEDPFYWVSPGVL [MOG]", 3.28),
    ("GLAKEYIDPETKKHIPYREHKSLT [CSNK1G3]", 4.2),
    ("VVLGNIIKKKGWRRSSLVITTKIF [KCNAB2]", 2.74),
    ("SYRETRRKEGIVKLKPHEEPLRSE [PTPN9]", 4.73),
    ("SQSLWNRLSVLLNLLPAAGELQES [SMG5]", 2.25),
    ("YSLLPQSTAPGLFLVSTHTGEVRT [PCDHGC5]", 3.07),
    ("QPNTYADFEFLAFWQTQYNNMNAV [PKD2L1]", 2.03),
    ("VSPRRIFANGHTYHINSISVNSDC [PPP2R2C]", 2.87),
    ("TYPFLAMIMLKDRRMTVVGRLEGL [FAF2]", 2.57),
    ("IDGQGRPRTSQSEETRVWHRRDGK [CAMK2B]", 5.24),
    ("VMSEGLGMRYAFIGPLETMHLNAE [CRYL1]", 2.05),
    ("SKKEGKRQGPKEPPRKSGSFHSSG [PBXIP1]", 5.2),
    ("IIRNVGKYREAARLEINVLKKIKE [CLK3]", 2.33),
    ("MDVPGPVSRRAAAAAATVLLRTAR [SLC19A2]", 3.42),
    ("AGPGGGAERRRAGRLLLTLPLLRQ [ESRRA]", 2.84),
    ("IDIIPNPQERTLTLVDTGIGMTKA [HSP90AB1]", 3.43),
    ("PASQAASSSSASADLLAGFGGSFM [SNAP91]", 3.73),
]
